- Tested on: ZR751
- test: BrdU DNA incorporation assay
- condition: Homo sapiens, ZR-75-1, 24 h
property-measured: pIC50
Scale explanation: pIC50 corresponds to minus log10 of a concentration expressed in moles per litre.

Asked: // lookup pIC50 for "CC(=O)c1c(C)c2cnc(Nc3ccc(N4CCNCC4)cn3)nc2n(C2CCCC2)c1=O"
Given back: 7.82

* * *

- System: breast cancer cell lines
- test: BrdU incorporation assay, panel of 20 cell lines
- condition: Homo sapiens, read-out: IC50s with the BrdU incorporation assay
pIC50: −log10 of the molar value.
property-measured: pIC50

Asked: // lookup pIC50 for "CC(=O)c1c(C)c2cnc(Nc3ccc(N4CCNCC4)cn3)nc2n(C2CCCC2)c1=O"
Given back: 7.30 to 8.30
